Entry source: the RNAGym collection of RNA variant scans (doi:10.7554/elife.80360)

B1: HDV Ribozyme (parent)
chain: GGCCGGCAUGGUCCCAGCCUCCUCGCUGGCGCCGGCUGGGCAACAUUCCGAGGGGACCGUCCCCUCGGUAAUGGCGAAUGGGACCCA

variants of: B1; assay: self-cleavage, relative activity (ratio to wild type); higher = more cleavage; co-transcriptional
Recorded endpoint: self-cleavage

[[record]]
mutant = "G35A C57G"
recorded_endpoint = "self-cleavage"
assay_value = 0.684

[[record]]
mutant = "A56C C61U"
recorded_endpoint = "self-cleavage"
assay_value = 0.942

[[record]]
mutant = "G52A U69A"
recorded_endpoint = "self-cleavage"
assay_value = 1.05

[[record]]
mutant = "G52C A87U"
recorded_endpoint = "self-cleavage"
assay_value = 1

[[record]]
mutant = "G40A U69C"
recorded_endpoint = "self-cleavage"
assay_value = 0.876

[[record]]
mutant = "C66A G81U"
recorded_endpoint = "self-cleavage"
assay_value = 0.227

[[record]]
mutant = "G52A G76C"
recorded_endpoint = "self-cleavage"
assay_value = 1.24

[[record]]
mutant = "C33A A45G"
recorded_endpoint = "self-cleavage"
assay_value = 0.0536

[[record]]
mutant = "G10U C32G"
recorded_endpoint = "self-cleavage"
assay_value = 0.0554

[[record]]
mutant = "A8C G52C"
recorded_endpoint = "self-cleavage"
assay_value = 0.957

[[record]]
mutant = "G50U G80C"
recorded_endpoint = "self-cleavage"
assay_value = 0.111

[[record]]
mutant = "U72A C84U"
recorded_endpoint = "self-cleavage"
assay_value = 0.578

[[record]]
mutant = "A56U C75G"
recorded_endpoint = "self-cleavage"
assay_value = 0.151

[[record]]
mutant = "U20G A45C"
recorded_endpoint = "self-cleavage"
assay_value = 0.158

[[record]]
mutant = "G17U U37C"
recorded_endpoint = "self-cleavage"
assay_value = 0.612

[[record]]
mutant = "C24A A70G"
recorded_endpoint = "self-cleavage"
assay_value = 0.804

[[record]]
mutant = "A8U C14A"
recorded_endpoint = "self-cleavage"
assay_value = 0.192

[[record]]
mutant = "G76A A87U"
recorded_endpoint = "self-cleavage"
assay_value = 1.08

[[record]]
mutant = "G68U G82C"
recorded_endpoint = "self-cleavage"
assay_value = 0.215

[[record]]
mutant = "C49U G81A"
recorded_endpoint = "self-cleavage"
assay_value = 0.378

[[record]]
mutant = "G10U C58U"
recorded_endpoint = "self-cleavage"
assay_value = 0.982

[[record]]
mutant = "C14G C75A"
recorded_endpoint = "self-cleavage"
assay_value = 0.111

